The measured values listed here are drawn from ChEMBL document CHEMBL2046386.

For each record, write down the corresponding bioavailability.
- EXPERIMENT NOTES: Oral bioavailability in mouse at 30 mg/kg
- Type: ADME, organism-based
- APPLIED CONDITIONS: in vivo
One number for each entry, in %.

CHEMICAL STRUCTURE: CCCS(=O)(=O)Nc1ccc(F)c(NC(=O)c2csc3c(N)ncnc23)c1F
UNIT TAG: %
bioavailability: 100

// bioavailability value for CCCS(=O)(=O)Nc1ccc(F)c(NC(=O)c2cccc3c(N)ncnc23)c1F : 71

---

- SUBJECT OF TEST: Serine/threonine-protein kinase B-raf (Homo sapiens, UniProt P15056, V600E)
- Sequence (P15056 2-766 V600E limits assumed): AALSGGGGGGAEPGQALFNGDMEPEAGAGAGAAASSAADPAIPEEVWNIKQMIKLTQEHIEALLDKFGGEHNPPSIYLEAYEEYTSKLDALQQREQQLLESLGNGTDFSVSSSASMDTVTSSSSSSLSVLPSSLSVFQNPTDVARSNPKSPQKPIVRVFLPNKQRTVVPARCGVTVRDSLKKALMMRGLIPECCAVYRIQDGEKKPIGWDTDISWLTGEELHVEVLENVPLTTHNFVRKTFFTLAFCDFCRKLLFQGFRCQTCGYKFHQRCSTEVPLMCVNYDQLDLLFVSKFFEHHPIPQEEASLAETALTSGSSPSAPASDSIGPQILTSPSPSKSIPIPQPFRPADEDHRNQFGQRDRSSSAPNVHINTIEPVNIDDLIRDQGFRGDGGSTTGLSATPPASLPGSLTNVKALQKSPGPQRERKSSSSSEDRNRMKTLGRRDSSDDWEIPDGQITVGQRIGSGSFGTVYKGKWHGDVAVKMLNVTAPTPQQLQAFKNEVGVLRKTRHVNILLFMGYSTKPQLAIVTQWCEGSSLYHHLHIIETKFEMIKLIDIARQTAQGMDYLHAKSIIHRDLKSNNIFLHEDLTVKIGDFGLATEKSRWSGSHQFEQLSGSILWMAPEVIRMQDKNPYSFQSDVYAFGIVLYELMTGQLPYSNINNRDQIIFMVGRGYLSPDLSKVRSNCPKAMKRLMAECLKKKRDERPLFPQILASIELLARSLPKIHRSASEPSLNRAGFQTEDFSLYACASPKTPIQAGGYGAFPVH
- EXPERIMENT NOTES: Inhibition of B-raf V600E mutant-mediated Erk phosphorylation in human MALM-3M cells by fluorometric analysis
MEASUREMENT NAME: EC50 (nM)
One number for each entry, in nM.

Recorded EC50 (compound CCCS(=O)(=O)Nc1ccc(F)c(NC(=O)Nc2ncnc3[nH]nc(OC)c23)c1F ): 2.6
